The origin of these recorded values is the supplement of paper PMC10567573.

Reported protein stability index values are given for each entry in this list.
B1: TOR1AIP2 (parent)
chain: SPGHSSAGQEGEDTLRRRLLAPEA

variants of: B1; experiment: protein stability index of a GFP-peptide fusion (GPS, HEK-293T) (PSI 1-6); higher = more stable; details: c terminus: a fixed tail appended;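 also: lentivirally expressed fusions sorted by FACS into six bins by GFP to DsRed ratio, PSI derived from sequencing read proportions per bin multiplied by bin number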
MEASUREMENT LABEL: protein stability index

>>> df
    mutant_label        measurement_label  measured_number
 0          R18S  protein stability index             5.01
 1          P22H  protein stability index             5.27
 2          E12N  protein stability index             3.81
 3          T14G  protein stability index             4.41
 4           H4D  protein stability index             4.89
 5          T14A  protein stability index             4.06
 6          D13Q  protein stability index             4.09
 7          R16N  protein stability index             5.23
 8           Q9D  protein stability index             3.84
 9          E12V  protein stability index             3.22
10          G11P  protein stability index             4.05
11          E10N  protein stability index             3.72
12          L15D  protein stability index              5.7
13          E12W  protein stability index             3.19
14          L19K  protein stability index             5.54
15          D13S  protein stability index             3.67
16           Q9M  protein stability index             3.43
17          A24F  protein stability index             3.98
18           G3L  protein stability index             3.78
19           S5Q  protein stability index             4.64
20          T14W  protein stability index              4.5
21          T14V  protein stability index             3.97
22           Q9C  protein stability index             3.22
23          A24G  protein stability index             5.14
24           G3D  protein stability index             4.73
25           S6Y  protein stability index             3.73
26          E12R  protein stability index             3.84
27           A7C  protein stability index             3.45
28           S5F  protein stability index                4
29           G3Y  protein stability index             3.83
30           A7F  protein stability index             4.16
31          L15S  protein stability index             5.16
32           A7Y  protein stability index              3.9
33          P22F  protein stability index             4.92
34           P2E  protein stability index             4.43
35          R18P  protein stability index              5.5
36           S5M  protein stability index             4.49
37           H4A  protein stability index             4.22
38          T14F  protein stability index             4.39
39           P2C  protein stability index             2.03
40          R16P  protein stability index              4.9
41          L15G  protein stability index             5.44
42           H4F  protein stability index              4.3
43          E23W  protein stability index             3.98
44          R16S  protein stability index             5.63
45           S1W  protein stability index             4.53
46           S1A  protein stability index             5.07
47          R17W  protein stability index             2.36
48          A24L  protein stability index             3.02
49          L20E  protein stability index              4.9
50           Q9I  protein stability index             4.08
51           S5T  protein stability index             4.46
52          R16F  protein stability index             4.71
53           A7Q  protein stability index             4.24
54          R17E  protein stability index             4.42
55          E10W  protein stability index             3.42
56          T14E  protein stability index              4.4
57           G8H  protein stability index             4.69
58          A21Y  protein stability index             4.38
59           G8M  protein stability index             4.05
60           S6P  protein stability index             4.26
61          E23L  protein stability index             3.87
62          E12D  protein stability index             3.97
63          R17K  protein stability index             4.76
64           S6D  protein stability index             4.48
65          R17L  protein stability index             3.31
66           A7P  protein stability index             3.42
67          D13W  protein stability index             2.96
68          E12H  protein stability index             3.73
69           G3E  protein stability index             4.65
70          E23V  protein stability index             4.38
71          A21C  protein stability index             3.31
72           S1P  protein stability index              5.3
73           G3W  protein stability index              4.3
